- targetOrSystem: mushroom tyrosinase
- experimentDescription: L-DOPA oxidation (dopachrome, […] nm) inhibition assay with Lineweaver-Burk kinetics
- Format: biochemical
The following compounds are shown together with reported IC50 values.
# unit: µM | format: bare number

INSERT INTO assay_data (compound, resultnumber) VALUES
  ('C[C@@H]1O[C@@H](O[C@@H]2[C@@H](O)[C@H](OCCc3ccc(O)c(O)c3)O[C@H](CO)[C@H]2OC(=O)/C=C/c2ccc(O)c(O)c2)[C@H](O)[C@H](O)[C@H]1O', 22.7);

Consider now this further compound.
[ask] # get_value(readout='IC50', item= O=C1C(O)Oc2ccccc2N1O (centres unmarked) [compound 1, 2,4-dihydroxy-1,4-benzoxazin-3-one] )
[reply] 27.2
